Molecular target: T1, human C1s (human, UniProt P09871 16-688)
T1 construct: Analyte in the Biacore assays; also called hC1s; serum-derived human C1s (CompTech)
T1 sequence: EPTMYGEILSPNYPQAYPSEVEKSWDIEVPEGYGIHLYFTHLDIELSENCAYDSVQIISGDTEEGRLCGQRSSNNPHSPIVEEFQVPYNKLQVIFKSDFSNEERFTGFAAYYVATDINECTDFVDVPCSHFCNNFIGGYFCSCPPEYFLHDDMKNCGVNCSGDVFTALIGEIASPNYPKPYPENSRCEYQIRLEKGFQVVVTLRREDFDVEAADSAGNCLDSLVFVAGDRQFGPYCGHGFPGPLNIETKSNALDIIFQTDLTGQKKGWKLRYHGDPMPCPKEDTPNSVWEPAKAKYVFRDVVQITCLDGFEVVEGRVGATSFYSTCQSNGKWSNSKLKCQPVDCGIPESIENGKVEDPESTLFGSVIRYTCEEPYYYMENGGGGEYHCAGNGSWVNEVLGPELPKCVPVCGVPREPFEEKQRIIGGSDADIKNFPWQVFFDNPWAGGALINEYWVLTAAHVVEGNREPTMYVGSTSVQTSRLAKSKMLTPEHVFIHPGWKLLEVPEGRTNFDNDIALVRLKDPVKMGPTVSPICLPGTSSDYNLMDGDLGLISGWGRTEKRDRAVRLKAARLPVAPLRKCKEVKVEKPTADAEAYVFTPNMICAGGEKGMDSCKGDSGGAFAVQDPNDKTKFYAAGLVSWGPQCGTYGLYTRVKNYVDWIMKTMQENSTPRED
Test: SPR (Biacore T200, 37C), Ab captured on protein A/G; pH 5.8, 1.2 mM Ca
Assay metric: kon (M⁻¹ s⁻¹)

binder="C1_IPN92H0160-SG4GK/IPN93L0024-SK1 (antibody, human IgG4 S228P, kappa, name in Kabat numbering, V domains shown, Substitutions from IPN009VH2, Kabat numbering; also called IPN92H0160/IPN93L0024) VH: EVMLVESGGGLVKPGGSLRLSCAASGFTFSNYAMSWVRQAPGKGLEWVATISSGGSHTYELDSVKGRFTISRDNSKDTLYLQMNSLRAEDTALYYCARLFTGHAMDYWGQGTLVTVSS VL: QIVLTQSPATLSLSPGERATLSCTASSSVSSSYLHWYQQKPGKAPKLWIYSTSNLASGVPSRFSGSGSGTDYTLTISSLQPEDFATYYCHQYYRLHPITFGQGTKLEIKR" quantitative_readout=461000
binder="C1_IPN92H0147-SG4GK/IPN93L0024-SK1 (antibody, human IgG4 S228P, kappa, name in Kabat numbering, V domains shown, Substitutions from IPN009VH2, Kabat numbering; also called IPN92H0147/IPN93L0024) VH: EVMLVESGGGLVKPGGSLRLSCAASGFTFSNYAMSWVRQAPGKGLEWVATISSGGSHDYYLDSVKGRFTISRDNSKDTLYLQMNSLRAEDTALYYCARLFTGHAMDYWGQGTLVTVSS VL: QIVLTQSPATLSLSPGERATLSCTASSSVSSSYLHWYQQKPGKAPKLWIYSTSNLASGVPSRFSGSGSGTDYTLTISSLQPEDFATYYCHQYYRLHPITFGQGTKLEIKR" quantitative_readout=445000
binder="C1_IPN92H0162-SG4GK/IPN93L0024-SK1 (antibody, human IgG4 S228P, kappa, name in Kabat numbering, V domains shown, Substitutions from IPN009VH2, Kabat numbering; also called IPN92H0162/IPN93L0024) VH: EVMLVESGGGLVKPGGSLRLSCAASGFTFSNYAMSWVRQAPGKGLEWVATISSGGSHTYKLDSVKGRFTISRDNSKDTLYLQMNSLRAEDTALYYCARLFTGHAMDYWGQGTLVTVSS VL: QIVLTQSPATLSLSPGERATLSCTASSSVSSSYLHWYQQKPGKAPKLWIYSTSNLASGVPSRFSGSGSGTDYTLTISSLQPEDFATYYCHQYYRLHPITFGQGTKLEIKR" quantitative_readout=456000
